assay.procedure: NCI Yeast Anticancer Drug Screen. Data for the rad50 strain (AID 155);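 note: 0% = growth of vehicle-only cultures of the same strain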
setup.conditions: S. cerevisiae rad50 strain growth inhibition; at 50.0 µM; hits give high values
Experimental: Growth inhibition of yeast strains with defined genetic alterations is measured as a screen for potential anti-cancer activity. Selected strains with alterations in DNA damage repair or cell cycle control were exposed to compounds and growth inhibition was measured relative to vehicle treated controls. The strain used in this assay is rad50
The panel holds about 79,000 compounds, 15% with a hit somewhere; the sample as a whole holds those more often.
value.type: growth inhibition (%)
Record the value in %, omitting the unit from your answer.

# return recorded growth inhibition for entry "O=C1CCC(=O)Nc2ccc3nc4ccccc4c(c3c2)SCCCCCCCCCCCCSc2c3ccccc3nc3ccc(cc23)N1" -22.4

# return recorded growth inhibition for entry "O=[N+]([O-])c1ccc(C=C2C=c3ccccc3=C2)cc1" 5.8

# return recorded growth inhibition for entry "[N-]=[N+]=CC(=O)CCN1C(=O)c2ccccc2C1=O" -9.85

# return recorded growth inhibition for entry "CS(=O)(=O)OCCCSCCSCCCOS(C)(=O)=O" -4

# return recorded growth inhibition for entry CC1OC(CC(=O)O)CC2=C1C(=O)c1c(O)cccc1C2=O (stereo unspecified) -6.3

# return recorded growth inhibition for entry Oc1cc2c(cc1C(c1ccc3c(c1)OCO3)N1CCCC1)OCO2 (stereo unspecified) -4.9

# return recorded growth inhibition for entry "O=C(CCc1ccc(O)c(O)c1)NCCc1cc(OCc2ccccc2)cc(OCc2ccccc2)c1" 83.9

# return recorded growth inhibition for entry "CCOc1ccc(NC(C)=O)c([N+](=O)[O-])c1" -7.05

# return recorded growth inhibition for entry COc1cc(OC)cc(C2OC3=C(Nc4ccccc4N3)C2=O)c1 (stereo unspecified) 12.8

# return recorded growth inhibition for entry "CCOC(=O)/C=C/n1c2ccccc2c(=O)c2cc(OC)ccc21" -3.25

# return recorded growth inhibition for entry "Cc1cc(C)n(-c2nc(C)c(CCO)c(=O)[nH]2)n1" -6.45

---

assay.procedure: NCI Yeast Anticancer Drug Screen. Data for the mlh1 rad18 strain (AID 175)
setup.conditions: S. cerevisiae mlh1 rad18 strain growth inhibition; at 50.0 µM
The panel holds about 79,000 compounds, 15% with a hit somewhere; the sample as a whole holds those more often. The source made the active and inactive calls. Rule as the data show it: active = growth inhibition above about 70%; inactive = the rest.
API: response.call in yes (active), no (inactive)

The examples below pair each entry with its known result.
compound	class.assignment
N#Cc1c2c(c(=O)n3c1[nH]c1ccccc13)CCCC2	no
C1CSCCCSCCSCCCSC1	no
CCn1c(=O)c2nc(SC)sc2n(-c2ccc(C)cc2)c1=O	no
CCOC(=O)CC(=O)C(=O)OCC	no
Nc1c2cc3ccc2nc2ccc(cc12)OCCOCCOCCOCCOCCOCCO3	no

For this compound, state the assay outcome: COc1cccc(C(c2cc3c(cc2O)OCO3)N2CCOCC2)c1O (stereo not drawn) yes

For this compound, state the assay outcome: CCCCCCCCCCCC(=O)N(CCCCCCCCCCC(=O)O)CC(O)C(O)C(OC1OC(CO)C(O)C(O)C1O)C(O)CO (stereo not drawn) no

For this compound, state the assay outcome: "CCN(CC)C(=O)CCC(=O)O" no

For this compound, state the assay outcome: "CC(C)(C)OC(=O)NCCNC(=O)OCc1ccccc1" no

---

assay.procedure: NCI Yeast Anticancer Drug Screen. Data for the bub3 strain (AID 167)
setup.conditions: S. cerevisiae bub3 mutant strain, at 50.0 µM, hits give high values
The panel holds about 79,000 compounds, 15% with a hit somewhere; the sample as a whole holds those more often.
Documented growth inhibition across a set of molecules
Record the value in %, omitting the unit from your answer.

Field: example entries. Status: answers known.
molecule	numeric.value
S=C1CSc2c(cnc3ccccc23)N1	18.2
CCOC(=O)c1c(C)c(C(C)=O)c2ccccn12	5.4
O/N=C1/CCSc2ccccc21	28.4

# return recorded growth inhibition for entry COc1cc2c3c(c1OC)C1(C=CC(=O)C=C1)CC3NCC2 (configuration not stated) -18.9

# return recorded growth inhibition for entry "O=C(Nc1ccccc1CCl)Nc1ccccc1CCl" -23.2

# return recorded growth inhibition for entry "CC(=O)Oc1nnc(OC(C)=O)c2cc(N)ccc12" 9.9

# return recorded growth inhibition for entry "CCc1nc(Nc2cccc(C)c2)c2cnn(-c3ccccc3)c2n1" -3.05

---

Documented growth inhibition across a set of compounds
assay.procedure: NCI Yeast Anticancer Drug Screen. Data for the rad50 strain (AID 155);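 note: 0% = growth of vehicle-only cultures of the same strain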
setup.conditions: S. cerevisiae rad50 strain growth inhibition; at 50.0 µM; hits give high values
About 79,000 compounds went through this panel and 15% of them were active in at least one assay; those are over-represented in the sample as a whole.
Record the value in %, omitting the unit from your answer.

Field: example entries. Status: answers known.
1. C(=C\c1ccc(OCc2ccccc2)cc1)/c1ccc(OCc2ccccc2)cc1 -5.5
2. O=C(NC1(C(=O)Oc2ccc([N+](=O)[O-])cc2)CCCC1)OCc1ccccc1 7.25
3. Cc1cccc(C2=C/C(=C(\SS/C(C(=O)c3ccc(OCC(=O)O)c(Cl)c3Cl)=C3\C=C(c4cccc(C)c4)SS3)C(=O)c3ccc(OCC(=O)O)c(Cl)c3Cl)SS2)c1 -6.65
4. CCOC(=O)C(=CNc1cccc(N)n1)C(=O)OCC -3.35
5. Nc1ccccc1C(=O)Nc1ccc(Cl)cc1C(=O)O -7
6. CCCCCCC(/C=N\N=C\c1ccco1)=C\c1ccccc1 -2.7

# return recorded growth inhibition for entry "COc1cccc(/C=C/c2cc3c(cc2Br)OCO3)c1" 3.3

# return recorded growth inhibition for entry "CC(=O)C(C(C)=O)C(c1ccccn1)C(C(C)=O)C(C)=O" -6.7

# return recorded growth inhibition for entry "CC(C)(c1ccc(O)c(Cl)c1)c1cc(Cl)c(O)c(S(=O)(=O)O)c1" 10.8

# return recorded growth inhibition for entry "Cc1nc(Nc2ccccc2)sc1C(=O)CC(=O)C(=O)NC12CC3CC(CC(C3)C1)C2" 1.3

# return recorded growth inhibition for entry "Nc1ccnc(Sc2ncccc2[N+](=O)[O-])n1" 1.2

---

Documented growth inhibition across a set of molecules
assay.procedure: NCI Yeast Anticancer Drug Screen. Data for the sgs1 mgt1 strain (AID 161);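 note: 0% = growth of cultures given vehicle only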
setup.conditions: S. cerevisiae sgs1 mgt1 strain, at 50.0 µM, hits give high values
Compounds without any hit were thinned out: in the full panel of roughly 79,000, 15% have a hit.
Record the value in %, omitting the unit from your answer.

Field: example entries. Status: answers known.
molecule	numeric.value
CCN1CCCC(SC(=O)C(O)(c2ccccc2)c2ccccc2)C1 (stereo not given)	-22.1
Clc1cc2nnn(C3CCCCO3)c2cc1Cl (stereo not given)	-23.4
CCCN(C(=O)c1ccccc1)C(C#N)c1ccc(C(C#N)N(CCC)C(=O)c2ccccc2)cc1 (stereo not given)	-24.4
CCc1ccccc1NC(=O)CC1NC(=O)CS1 (stereo not given)	4.4

# return recorded growth inhibition for entry "O=C(NC(CC(NC(=O)OCc1ccccc1)NC(=O)OCc1ccccc1)NC(=O)OCc1ccccc1)OCc1ccccc1" -0.1

---

assay.procedure: NCI Yeast Anticancer Drug Screen. Data for the rad50 strain (AID 155);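 note: 0% = growth of vehicle-only cultures of the same strain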
setup.conditions: S. cerevisiae rad50 strain growth inhibition; at 50.0 µM
About 79,000 compounds went through this panel and 15% of them were active in at least one assay; those are over-represented in the sample as a whole. Activity calls are given as the source filed them. No stated cut-off is given here; in the data, active means growth inhibition above about 70%; inactive means the rest.
API: response.call in y for active, n for inactive

The examples below pair each entry with its known result.
compound	class.assignment
CCC(CC)(CO)CO	n
CC(=C(C#N)C#N)c1ccccc1	n
CN(C)c1nc(Cl)cc2nc(Cl)cn12	n

For this compound, state the assay outcome: "CNC(=O)OCc1c(COC(=O)NC)c(C)n(-c2ccc(OC)cc2)c1C" n

For this compound, state the assay outcome: "Cc1cc(C)n(/N=C/c2ccccc2)c(=O)c1C#N" n

For this compound, state the assay outcome: CS(=O)CCNC(=O)NS(=O)(=O)c1ccc(Cl)cc1 (configuration not stated) n

For this compound, state the assay outcome: "Cc1ccc(C(=O)Nc2ccc([N+](=O)[O-])cc2)cc1" n

For this compound, state the assay outcome: "O=C(O)CC(C(=O)O)=C1CCCCC1" n

For this compound, state the assay outcome: "CC(=O)c1ccccc1" n

For this compound, state the assay outcome: "Cc1ccc(Cl)cc1NC(=O)CCc1ccccc1" n

For this compound, state the assay outcome: "COc1ccc(C(C)=O)cc1CO/N=C1\CSCc2ccccc21" n

For this compound, state the assay outcome: "Cc1ccc(NCCN)c2c(=O)c3cc(O)ccc3sc12" y

---

assay.procedure: NCI Yeast Anticancer Drug Screen. Data for the mlh1 rad18 strain (AID 175)
setup.conditions: S. cerevisiae mlh1 rad18 strain growth inhibition; at 50.0 µM
About 79,000 compounds went through this panel and 15% of them were active in at least one assay; those are over-represented in the sample as a whole. Activity calls are given as the source filed them. No stated cut-off is given here; in the data, active means growth inhibition above about 70%; inactive means the rest.
API: response.call in t for active, f for inactive

The examples below pair each entry with its known result.
compound	class.assignment
C=CCC(CNC(C)=O)(C1=CCCCC1)c1ccccc1 (stereo unspecified)	f
O=C1CC2(CCCC2)C(=O)N1c1ccc(O)c(CN2CCCCC2)c1	f
O=C(O)c1cc(C(=O)O)cc(N(CCO)CCO)c1	f
Cc1ccccc1N=Nc1c(-c2ccccc2)nn(C(=O)CC(=O)Nc2cccc(Cl)c2)c1-c1ccccc1	f
CCC(C)(CC(=O)O)CC(=O)O	f

For this compound, state the assay outcome: "Nc1c(Br)cc(Br)c2c1CCC2" f

For this compound, state the assay outcome: "CC(=O)Nc1ccc2ccc3ccccc3c2c1" f

For this compound, state the assay outcome: "CN(CCN(C)C(=O)CCn1cc(F)c(=O)[nH]c1=O)C(=O)CCn1cc(F)c(=O)[nH]c1=O" f

For this compound, state the assay outcome: O=C1CSC(c2ccco2)N1CCN1C(=O)CSC1c1ccco1 (stereo unspecified) f

For this compound, state the assay outcome: "ClCc1c(-c2ccccc2)nn(-c2ccccc2)c1CCl" f

For this compound, state the assay outcome: C#CC(C)(CC)OC(C)=O (stereo unspecified) f

For this compound, state the assay outcome: "CC[N+](CC)(CC)CCCC[P+](CC)(CC)CC" f

For this compound, state the assay outcome: "Cc1ccc2occ(/C=N/NC(N)=S)c(=O)c2c1" f

For this compound, state the assay outcome: "OCCCc1nc2ccccc2[nH]1" f

For this compound, state the assay outcome: CC(C)Oc1c(O)c2c3c(oc(=O)n3C=CC2c2ccccc2)c1OC(C)C (stereo unspecified) t

For this compound, state the assay outcome: Cc1ccc(C2OC(N)=C(O)C2=O)cc1 (stereo unspecified) f

For this compound, state the assay outcome: "CN(C)S(=O)(=O)c1cccc2ccccc12" f
